Test: Pharmacokinetic study in beagle dogs
Format: in vivo
Measurement Context: beagle, dog, plasma, iv, 30 mg/kg, Beagle3
Assay Readout: AUC(0-t)

Recorded AUC(0-t) for CNC(=O)c1cc(Oc2ccc(NC(=O)c3cccc(C(F)(F)F)c3)cc2)ccn1.Cc1ccc(S(=O)(=O)O)cc1.O , please? 25100 ng·h/mL

###

Test: Pharmacokinetic study in beagle dogs
Format: in vivo
Measurement Context: beagle, dog, plasma, iv, 30 mg/kg, Beagle 1
Assay Readout: Cmax (ng/mL)
# number only, unit ng/mL dropped from output

Recorded Cmax for CNC(=O)c1cc(Oc2ccc(NC(=O)c3cccc(C(F)(F)F)c3)cc2)ccn1.Cc1ccc(S(=O)(=O)O)cc1.O , please? 26000

###

Test: 1-octanol/water partition coefficient, shake-flask method
Format: physicochemical
Measurement Context: 1-octanol/PBS pH 6.8, pH 6.8; 1-octanol / PBS 6.8 solution, 37 °C
Assay Readout: logP at 6 h
Just the number, please.

Recorded logP at 6 h for CNC(=O)c1cc(Oc2ccc(NC(=O)c3cccc(C(F)(F)F)c3)cc2)ccn1.Cc1ccc(S(=O)(=O)O)cc1.O [NCE] , please? 4.2

###

Test: Pharmacokinetic study in beagle dogs
Format: in vivo
Measurement Context: beagle, dog, plasma, iv, 30 mg/kg, Beagle3
Assay Readout: Tmax (min)
# number only, unit min dropped from output

Recorded Tmax for CNC(=O)c1cc(Oc2ccc(NC(=O)c3cccc(C(F)(F)F)c3)cc2)ccn1.Cc1ccc(S(=O)(=O)O)cc1.O , please? 13.2

###

Test: Equilibrium solubility in phosphate buffers
Format: physicochemical
Measurement Context: aqueous buffer, thermodynamic from solid; phosphate buffer pH 1.0, 37 °C, n = 3, mean
Assay Readout: solubility at 3 days (µg/mL)
# number only, unit µg/mL dropped from output

Recorded solubility at 3 days for CNC(=O)c1cc(Oc2ccc(NC(=O)c3cccc(C(F)(F)F)c3)cc2)ccn1.Cc1ccc(S(=O)(=O)O)cc1.O , please? 81.7

###

Test: Solubility with sodium dodecyl sulfate (SDS) added
Assay type: physicochemical
Measurement Context: phosphate buffer with 2% SDS, aqueous with cosolvent or surfactant or cyclodextrin
Assay Readout: solubility (µg/mL)
# number only, unit µg/mL dropped from output

Recorded solubility for CNC(=O)c1cc(Oc2ccc(NC(=O)c3cccc(C(F)(F)F)c3)cc2)ccn1.Cc1ccc(S(=O)(=O)O)cc1.O , please? 256

###

Test: Equilibrium solubility in phosphate buffers
Type: physicochemical
Measurement Context: aqueous buffer, thermodynamic from solid; phosphate buffer pH 6.8, 37 °C, n = 3, mean
Assay Readout: solubility at 3 days (µg/mL)
# number only, unit µg/mL dropped from output

Recorded solubility at 3 days for CNC(=O)c1cc(Oc2ccc(NC(=O)c3cccc(C(F)(F)F)c3)cc2)ccn1.Cc1ccc(S(=O)(=O)O)cc1.O , please? 9.3

###

Test: Pharmacokinetic study in beagle dogs
Assay type: in vivo
Measurement Context: beagle, dog, plasma, po, 30 mg/kg, i.g., mean ± SD, n = 3, read-out: F, absolute bioavailability
Assay Readout: bioavailability (%)
# number only, unit % dropped from output

Recorded bioavailability for CNC(=O)c1cc(Oc2ccc(NC(=O)c3cccc(C(F)(F)F)c3)cc2)ccn1.Cc1ccc(S(=O)(=O)O)cc1.O , please? 26.8

###

Test: 1-octanol/water partition coefficient, shake-flask method
Format: physicochemical
Measurement Context: 1-octanol / 0.1 M HCl solution (pH = 1.0), 37 °C
Assay Readout: logP at 6 h
Just the number, please.

Recorded logP at 6 h for CNC(=O)c1cc(Oc2ccc(NC(=O)c3cccc(C(F)(F)F)c3)cc2)ccn1.Cc1ccc(S(=O)(=O)O)cc1.O [NCE] , please? 3.1
